experiment: Concentration of (S)-methoprene on dog hair following oral administration (HPLC); assay type: in vivo, dogs; details: random-bred, dog, hair, po, 50 mg/kg, Dog #529; oral 50 mg/kg one time on Day 0; day 3
recorded endpoint: concentration at 3 day (ng/g)
Your answer should be a plain number; it is taken to be in ng/g.

Which value of concentration at 3 day has been reported for COC(C)(C)CCC[C@H](C)C/C=C/C(C)=C/C(=O)OC(C)C [(S)-Methoprene] in the records? 82.2

###

assay: Concentration of (S)-methoprene on dog hair following oral administration (HPLC); assay type: in vivo, dogs; details: random-bred, dog, hair, po, 50 mg/kg, Dog #98; oral 50 mg/kg one time on Day 0; day 14
recorded endpoint: concentration at 14 day (ng/g)
Your answer should be a plain number; it is taken to be in ng/g.

Which value of concentration at 14 day has been reported for COC(C)(C)CCC[C@H](C)C/C=C/C(C)=C/C(=O)OC(C)C [(S)-Methoprene] in the records? 200

###

Experiment: Concentration of (S)-methoprene in dog blood following oral administration (HPLC)
Type: in vivo, dogs
Conditions: random-bred, whole blood, 50 mg/kg, Dog #535, oral 50 mg/kg one time on Day 0, day 5
Procedure: Twelve random-bred adult dogs of various sex and medium hair coat were selected based on hair coat, health, and individual habits. The twelve dogs were grouped into two groups of six dogs each. […] The dogs received a measured amount of Science Diet maintenance dog food daily and water was available. […] To analyze the blood samples, the samples were extracted three times with methyl t-butyl ether, evaporated, reconstituted in 1 mL of methanol, and analyzed by HPLC as in the hair analyses.
recorded endpoint: concentration at 5 day

Which value of concentration at 5 day has been reported for COC(C)(C)CCC[C@H](C)C/C=C/C(C)=C/C(=O)OC(C)C [(S)-Methoprene] in the records? 47.7 ng/g

###

assay: Concentration of (S)-methoprene in dog blood following oral administration (HPLC); format: in vivo, dogs; settings: random-bred, whole blood, 50 mg/kg, Dog #60, oral 50 mg/kg one time on Day 0, day 1
recorded endpoint: concentration at 1 day (ng/g)
Your answer should be a plain number; it is taken to be in ng/g.

Which value of concentration at 1 day has been reported for COC(C)(C)CCC[C@H](C)C/C=C/C(C)=C/C(=O)OC(C)C [(S)-Methoprene] in the records? 117

###

assay: Concentration of (S)-methoprene on dog hair following oral administration (HPLC); format: in vivo, dogs; conditions: random-bred, dog, hair, po, 50 mg/kg, Dog #529; oral 50 mg/kg one time on Day 0; day 1
recorded endpoint: concentration at 1 day (ng/g)
Your answer should be a plain number; it is taken to be in ng/g.

Which value of concentration at 1 day has been reported for COC(C)(C)CCC[C@H](C)C/C=C/C(C)=C/C(=O)OC(C)C [(S)-Methoprene] in the records? 86.6

###

assay: Concentration of (S)-methoprene on dog hair following oral administration (HPLC); format: in vivo, dogs; conditions: random-bred, dog, hair, po, 50 mg/kg, Dog #535; oral 50 mg/kg one time on Day 0; day 3
recorded endpoint: concentration at 3 day (ng/g)
Your answer should be a plain number; it is taken to be in ng/g.

Which value of concentration at 3 day has been reported for COC(C)(C)CCC[C@H](C)C/C=C/C(C)=C/C(=O)OC(C)C [(S)-Methoprene] in the records? 424

###

assay: Concentration of (S)-methoprene on dog hair following oral administration (HPLC); format: in vivo, dogs; conditions: random-bred, dog, hair, po, 50 mg/kg, Dog #532; oral 50 mg/kg one time on Day 0; day 28
recorded endpoint: concentration at 28 day

Which value of concentration at 28 day has been reported for COC(C)(C)CCC[C@H](C)C/C=C/C(C)=C/C(=O)OC(C)C [(S)-Methoprene] in the records? 230 ng/g

###

Test: Concentration of (S)-methoprene on dog hair following oral administration (HPLC)
Type: in vivo, dogs
Conditions: random-bred, dog, hair, po, 50 mg/kg, Dog #532; oral 50 mg/kg one time on Day 0; day 21
Text: Twelve random-bred adult dogs of various sex and medium hair coat were selected based on hair coat, health, and individual habits. The twelve dogs were grouped into two groups of six dogs each. Dog weights ranged from 22.5 kg to 35.0 kg, and the various weights and each sex were represented in each group. The dogs received a measured amount of Science Diet maintenance dog food daily and water was available. The two groups of dogs were housed separately. […]
recorded endpoint: concentration at 21 day (ng/g)
Your answer should be a plain number; it is taken to be in ng/g.

Which value of concentration at 21 day has been reported for COC(C)(C)CCC[C@H](C)C/C=C/C(C)=C/C(=O)OC(C)C [(S)-Methoprene] in the records? 342

###

assay: Concentration of (S)-methoprene in dog blood following oral administration (HPLC); assay type: in vivo, dogs; conditions: random-bred, whole blood, 50 mg/kg, Dog #98, oral 50 mg/kg one time on Day 0, day 1
recorded endpoint: concentration at 1 day (ng/g)
Your answer should be a plain number; it is taken to be in ng/g.

Which value of concentration at 1 day has been reported for COC(C)(C)CCC[C@H](C)C/C=C/C(C)=C/C(=O)OC(C)C [(S)-Methoprene] in the records? 97.2

###

assay: Concentration of (S)-methoprene on dog hair following oral administration (HPLC); format: in vivo, dogs; settings: random-bred, dog, hair, po, 50 mg/kg, Dog #528; oral 50 mg/kg one time on Day 0; day 14
recorded endpoint: concentration at 14 day (ng/g)
Your answer should be a plain number; it is taken to be in ng/g.

Which value of concentration at 14 day has been reported for COC(C)(C)CCC[C@H](C)C/C=C/C(C)=C/C(=O)OC(C)C [(S)-Methoprene] in the records? 103

###

Experiment: Concentration of (S)-methoprene on dog hair following oral administration (HPLC)
Format: in vivo, dogs
Details: random-bred, dog, hair, po, 50 mg/kg, Dog #98; oral 50 mg/kg one time on Day 0; day 3
Description: Twelve random-bred adult dogs of various sex and medium hair coat were selected based on hair coat, health, and individual habits. The twelve dogs were grouped into two groups of six dogs each. Dog weights ranged from 22.5 kg to 35.0 kg, and the various weights and each sex were represented in each group. The dogs received a measured amount of Science Diet maintenance dog food daily and water was available. The two groups of dogs were housed separately. […]
recorded endpoint: concentration at 3 day
// return the numeric value with its unit appended

Which value of concentration at 3 day has been reported for COC(C)(C)CCC[C@H](C)C/C=C/C(C)=C/C(=O)OC(C)C [(S)-Methoprene] in the records? 125 ng/g

###

experiment: Methoprene blood concentrations in dogs following a single oral dose (gas chromatography); format: in vivo; details: both sexes, mixed breed, dog, in vivo; mean of six dogs; single oral dose 50 mg/kg; 24 hours
recorded endpoint: concentration at 24 h (ng/mL)
Your answer should be a plain number; it is taken to be in ng/mL.

Which value of concentration at 24 h has been reported for COC(C)(C)CCC[C@H](C)C/C=C/C(C)=C/C(=O)OC(C)C [(S)-Methoprene] in the records? 85

###

assay: Concentration of (S)-methoprene on dog hair following oral administration (HPLC); type: in vivo, dogs; conditions: random-bred, dog, hair, po, 50 mg/kg, Dog #529; oral 50 mg/kg one time on Day 0; day 7
recorded endpoint: concentration at 7 day
// return the numeric value with its unit appended

Which value of concentration at 7 day has been reported for COC(C)(C)CCC[C@H](C)C/C=C/C(C)=C/C(=O)OC(C)C [(S)-Methoprene] in the records? 34.5 ng/g

###

experiment: Concentration of (S)-methoprene on dog hair following oral administration (HPLC); assay type: in vivo, dogs; conditions: random-bred, dog, hair, po, 50 mg/kg, Dog #98; oral 50 mg/kg one time on Day 0; day 5
recorded endpoint: concentration at 5 day (ng/g)
Your answer should be a plain number; it is taken to be in ng/g.

Which value of concentration at 5 day has been reported for COC(C)(C)CCC[C@H](C)C/C=C/C(C)=C/C(=O)OC(C)C [(S)-Methoprene] in the records? 161

###

test: Concentration of (S)-methoprene on dog hair following oral administration (HPLC); assay type: in vivo, dogs; conditions: random-bred, dog, hair, po, 50 mg/kg, Dog #98; oral 50 mg/kg one time on Day 0; day 7
recorded endpoint: concentration at 7 day (ng/g)
Your answer should be a plain number; it is taken to be in ng/g.

Which value of concentration at 7 day has been reported for COC(C)(C)CCC[C@H](C)C/C=C/C(C)=C/C(=O)OC(C)C [(S)-Methoprene] in the records? 126

###

test: Concentration of (S)-methoprene on dog hair following oral administration (HPLC); type: in vivo, dogs; conditions: random-bred, dog, hair, po, 50 mg/kg, Dog #529; oral 50 mg/kg one time on Day 0; day 14
recorded endpoint: concentration at 14 day (ng/g)
Your answer should be a plain number; it is taken to be in ng/g.

Which value of concentration at 14 day has been reported for COC(C)(C)CCC[C@H](C)C/C=C/C(C)=C/C(=O)OC(C)C [(S)-Methoprene] in the records? 85.5
